Molecular target: AEA-DA lipid probe targets in Neuro2a cells (Mus musculus, UniProt Q9WTQ8)
Sequence (Q9WTQ8 1-209): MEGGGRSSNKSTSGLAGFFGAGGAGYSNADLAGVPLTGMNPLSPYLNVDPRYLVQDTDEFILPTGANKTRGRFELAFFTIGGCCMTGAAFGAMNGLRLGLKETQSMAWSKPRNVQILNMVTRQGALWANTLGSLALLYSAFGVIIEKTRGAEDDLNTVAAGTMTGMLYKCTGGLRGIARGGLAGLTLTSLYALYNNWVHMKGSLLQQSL
Conditions: competitor 25 μM
SILAC ratio, Timm23 values, listed per item
No unit in the answer, please; the number alone is enough.

Consider the following illustrative entries.
compound: O=C(/C=C/c1cccnc1)NCCCCC1CCN(C(=O)c2ccccc2)CC1 [FK-866, reference compound]
measured: 1.1
--
compound: C=CCN(C)CCCCCCOc1ccc(C(=O)c2ccc(Br)cc2)c(F)c1 [Ro 48-8071, reference compound]
measured: 1.0
--
compound: CN1CCN(C(=O)c2c(-c3ccccc3)c3cc([N+](=O)[O-])ccc3n2C)CC1
measured: 1.3

Attention now turns to another entry.
Give the reported SILAC ratio, Timm23 for "CN1CCN(C(=O)c2[nH]c3ccc([N+](=O)[O-])cc3c2-c2ccccc2)CC1" (system: AEA-DA lipid probe targets in Neuro2a cells (Mus musculus, UniProt Q9WTQ8)).
1.2

====

Molecular target: AEA-DA lipid probe targets in Neuro2a cells (Mus musculus, UniProt Q8VI75)
Sequence (Q8VI75 1-1082): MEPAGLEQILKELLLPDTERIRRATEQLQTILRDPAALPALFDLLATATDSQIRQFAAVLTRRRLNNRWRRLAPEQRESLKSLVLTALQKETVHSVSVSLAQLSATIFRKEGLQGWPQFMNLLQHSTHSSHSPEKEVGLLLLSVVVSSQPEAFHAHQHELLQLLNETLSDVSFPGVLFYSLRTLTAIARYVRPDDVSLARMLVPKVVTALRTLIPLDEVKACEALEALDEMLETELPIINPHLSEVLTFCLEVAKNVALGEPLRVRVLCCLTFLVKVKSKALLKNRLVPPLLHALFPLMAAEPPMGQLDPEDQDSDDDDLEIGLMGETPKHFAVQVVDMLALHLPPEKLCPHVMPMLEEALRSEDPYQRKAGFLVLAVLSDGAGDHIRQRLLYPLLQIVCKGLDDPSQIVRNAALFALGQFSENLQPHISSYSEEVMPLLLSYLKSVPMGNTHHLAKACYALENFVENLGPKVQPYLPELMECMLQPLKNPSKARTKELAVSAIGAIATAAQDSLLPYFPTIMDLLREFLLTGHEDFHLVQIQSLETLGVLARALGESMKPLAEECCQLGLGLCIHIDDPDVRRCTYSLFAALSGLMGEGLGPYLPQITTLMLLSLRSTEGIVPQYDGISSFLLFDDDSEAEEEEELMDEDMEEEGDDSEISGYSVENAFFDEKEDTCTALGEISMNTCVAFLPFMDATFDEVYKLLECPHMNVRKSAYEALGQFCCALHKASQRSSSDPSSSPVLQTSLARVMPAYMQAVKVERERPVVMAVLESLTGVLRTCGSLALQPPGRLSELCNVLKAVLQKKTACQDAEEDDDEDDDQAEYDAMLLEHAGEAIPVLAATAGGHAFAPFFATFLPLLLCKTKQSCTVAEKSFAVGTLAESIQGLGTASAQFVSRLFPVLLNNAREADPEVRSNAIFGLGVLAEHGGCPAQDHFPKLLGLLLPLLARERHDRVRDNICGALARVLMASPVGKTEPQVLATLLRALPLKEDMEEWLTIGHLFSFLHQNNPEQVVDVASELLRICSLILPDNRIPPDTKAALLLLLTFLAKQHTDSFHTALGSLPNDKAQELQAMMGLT
Conditions: competitor 25 μM
In this section, each of the compounds is paired with its reported SILAC ratio Ipo4.
Give the figure by itself; no unit, no explanation.

Examples with their reported SILAC ratio Ipo4 follow.
compound: CN1CCN(C(=O)c2[nH]c3ccc([N+](=O)[O-])cc3c2-c2ccccc2)CC1
SILAC ratio Ipo4: 1.3
//
compound: O=C(/C=C/c1cccnc1)NCCCCC1CCN(C(=O)c2ccccc2)CC1 [FK-866, reference compound]
SILAC ratio Ipo4: 1.3
//
compound: CN1CCN(C(=O)c2c(-c3ccccc3)c3cc([N+](=O)[O-])ccc3n2C)CC1
SILAC ratio Ipo4: 1.4

From here, focus on the item given below.
Reported SILAC ratio Ipo4 for C=CCN(C)CCCCCCOc1ccc(C(=O)c2ccc(Br)cc2)c(F)c1 [Ro 48-8071, reference compound] : what is it?
1.0

Value source: patent US10168342B2
